system: T1, recombinant purified cyno IL-12 p70 (cynomolgus monkey)
T1 chain 1: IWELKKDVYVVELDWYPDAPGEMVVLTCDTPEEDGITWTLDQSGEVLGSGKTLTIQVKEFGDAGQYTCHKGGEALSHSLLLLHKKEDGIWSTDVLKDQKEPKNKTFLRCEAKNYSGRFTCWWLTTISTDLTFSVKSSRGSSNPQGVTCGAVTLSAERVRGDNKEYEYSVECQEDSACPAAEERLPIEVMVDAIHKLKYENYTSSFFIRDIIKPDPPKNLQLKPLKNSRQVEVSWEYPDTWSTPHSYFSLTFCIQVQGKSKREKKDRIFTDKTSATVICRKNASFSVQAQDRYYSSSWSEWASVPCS
T1 chain 2: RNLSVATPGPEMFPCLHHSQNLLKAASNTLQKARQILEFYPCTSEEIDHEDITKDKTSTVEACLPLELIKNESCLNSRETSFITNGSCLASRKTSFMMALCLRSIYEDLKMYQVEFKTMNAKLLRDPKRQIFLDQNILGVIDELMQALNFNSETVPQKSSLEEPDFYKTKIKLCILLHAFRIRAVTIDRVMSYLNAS
procedure text: cell-based or functional assay
measured parameter: Av. IC50 (nM) Cyno IL-12, PHA blast assay
Numbers only, in nM.

Kindly give each listed record's Av. IC50 (nM) Cyno IL-12, PHA blast assay.
1. CDR grafted anti IL-12p40 antibody 3G7.1 (antibody, human IgG1, kappa, L234A L235A, V domains shown, Full-length CDR-grafted antibody, COS cells) VH: EVQLVQSGAEVKKPGSSVKVSCKASGGTFSDYWIEWVRQAPGQGLEWMGGFSHGSGSTNYNEKFKGRVTITADKSTSTAYMELSSLRSEDTAVYYCARRRFRGMDYWGQGTTVTVSS VL: DIVMTQSPDSLAVSLGERATINCKASQSVSNDVAWYQQKPGQPPKLLIYYASNRYTGVPDRFSGSGSGTDFTLTISSLQAEDVAVYYCQQDYSSPWSFGGGTKVEIKR
2. CDR grafted anti IL-12p40 antibody 1D4.1 (antibody, human IgG1, kappa, L234A L235A, V domains shown, Full-length CDR-grafted antibody, COS cells) VH: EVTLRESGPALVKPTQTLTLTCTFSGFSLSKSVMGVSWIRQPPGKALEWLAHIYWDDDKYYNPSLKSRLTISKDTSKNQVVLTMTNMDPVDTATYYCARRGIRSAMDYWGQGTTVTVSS VL: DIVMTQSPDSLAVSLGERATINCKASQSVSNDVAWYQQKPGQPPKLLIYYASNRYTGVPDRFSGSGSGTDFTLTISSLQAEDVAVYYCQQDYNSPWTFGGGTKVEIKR
3. CDR grafted anti IL-12p40 antibody 1A6.2 (antibody, human IgG1, kappa, L234A L235A, V domains shown, Full-length CDR-grafted antibody, COS cells) VH: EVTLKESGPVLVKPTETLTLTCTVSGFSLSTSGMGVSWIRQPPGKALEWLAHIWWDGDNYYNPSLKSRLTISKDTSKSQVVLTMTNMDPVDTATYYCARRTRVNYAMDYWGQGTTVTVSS VL: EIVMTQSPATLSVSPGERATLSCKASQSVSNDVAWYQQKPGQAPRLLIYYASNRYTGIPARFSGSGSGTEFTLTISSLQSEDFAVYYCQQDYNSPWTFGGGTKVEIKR

Output line:
[1.2, 1.5, 0.84]
